Kd values for the sequences below.
target.entity: HLA-A*32:01
procedure.text: IEDB peptide-MHC binding, purified MHC/competitive/radioactivity; filed as Kd, often an IC50 or EC50 that approximates it; bounds were set here for any values at or beyond the usual limits of such assays
run.conditions: source organism: Vaccinia virus WR
Kindly provide the numeric value in nM only, without the unit symbol.

Given item LLWFLTGTF , the value recorded as its Kd is 93

Given item MTVVSAVHF , the value recorded as its Kd is 1940

Given item DINFITVNI , the value recorded as its Kd is 424

Given item SICEIVYSF , the value recorded as its Kd is 0.352

====

target.entity: HLA-A*02:01
procedure.text: IEDB peptide-MHC binding, purified MHC/competitive/fluorescence; filed as Kd, often an IC50 or EC50 that approximates it; bounds were set here for any values at or beyond the usual limits of such assays
run.conditions: source organism: Orthohantavirus puumalaense
measure.name: Kd

Given item ATKDSFQSF , the value recorded as its Kd is ≥ 20 µM

====

Kd values for the sequences below.
target.entity: HLA-A*29:02
procedure.text: IEDB peptide-MHC binding, purified MHC/direct/fluorescence; filed as Kd, often an IC50 or EC50 that approximates it; bounds were set here for any values at or beyond the usual limits of such assays
run.conditions: source organism: West Nile virus

> print(dat)
         seq  assay.value
1  TEGEGRVIL      ≥ 20 µM

Given item KCRVKMEKL , the value recorded as its Kd is ≥ 20 µM

====

target.entity: HLA-A*26:01
procedure.text: IEDB peptide-MHC binding, purified MHC/direct/fluorescence; filed as Kd, often an IC50 or EC50 that approximates it; bounds were set here for any values at or beyond the usual limits of such assays
run.conditions: source organism: Vibrio parahaemolyticus AQ3810
pKd: −log10 of the molar value.
measure.name: pKd

Given item RLDKPLWLH , the value recorded as its pKd is ≤ 4.70

====

target.entity: HLA-B*15:09
procedure.text: IEDB peptide-MHC binding, purified MHC/direct/fluorescence; filed as Kd, often an IC50 or EC50 that approximates it; bounds were set here for any values at or beyond the usual limits of such assays
run.conditions: source organism: West Nile virus strain PTRoxo
measure.name: pKd
Notebook: values listed as pKd are -log10 of the concentration (mol/L).

Given item GHGTVVLEL , the value recorded as its pKd is 5.34

====

target.entity: HLA-A*02:12
procedure.text: IEDB peptide-MHC binding, purified MHC/direct/fluorescence; filed as Kd, often an IC50 or EC50 that approximates it; bounds were set here for any values at or beyond the usual limits of such assays
run.conditions: source organism: Ebola virus Yambio0403
pKd: −log10 of the molar value.
measure.name: pKd

Given item SWHHTSDDF , the value recorded as its pKd is ≤ 4.70

====

target.entity: HLA-B*15:42
procedure.text: IEDB peptide-MHC binding, purified MHC/competitive/fluorescence; filed as Kd, often an IC50 or EC50 that approximates it; bounds were set here for any values at or beyond the usual limits of such assays
run.conditions: source organism: human gammaherpesvirus 4
pKd: −log10 of the molar value.
measure.name: pKd

Given item TEMYIMYAM , the value recorded as its pKd is ≤ 5.30

====

Kd values for the sequences below.
target.entity: HLA-A*30:02
procedure.text: IEDB peptide-MHC binding, purified MHC/competitive/radioactivity; filed as Kd, often an IC50 or EC50 that approximates it; bounds were set here for any values at or beyond the usual limits of such assays
run.conditions: source organism: Dengue virus 2 Jamaica/1409/1983
Kindly provide the numeric value in nM only, without the unit symbol.

Given item LKIVRNMEKY , the value recorded as its Kd is 55.2

Given item AALLLLVAHY , the value recorded as its Kd is 10500

Given item VAGGLLTVCY , the value recorded as its Kd is 108

====

target.entity: HLA-B*57:01
procedure.text: IEDB peptide-MHC binding, purified MHC/direct/fluorescence; filed as Kd, often an IC50 or EC50 that approximates it; bounds were set here for any values at or beyond the usual limits of such assays
run.conditions: source organism: Vibrio cholerae O395
pKd: −log10 of the molar value.
measure.name: pKd

Given item VVSEIDLQW , the value recorded as its pKd is ≤ 4.70

====

Kd values for the sequences below.
target.entity: HLA-A*32:01
procedure.text: IEDB peptide-MHC binding, purified MHC/competitive/radioactivity; filed as Kd, often an IC50 or EC50 that approximates it; bounds were set here for any values at or beyond the usual limits of such assays
run.conditions: source organism: Dengue virus 2 Jamaica/1409/1983
Kindly provide the numeric value in µM only, without the unit symbol.

A selection of reference data follows.
> print(dat)
          seq  measure.name  unit.of.measure  assay.value
1   HTWTEQYKF            Kd               µM        0.151
2  GVSGGSWVDI            Kd               µM         4.31

Turning now to a further record.
Given item GPISTLWEGN , the value recorded as its Kd is 9.04

====

target.entity: HLA-A*02:03
procedure.text: IEDB peptide-MHC binding, purified MHC/competitive/fluorescence; filed as Kd, often an IC50 or EC50 that approximates it; bounds were set here for any values at or beyond the usual limits of such assays
run.conditions: source organism: Corynebacterium glutamicum ATCC 13032
measure.name: Kd

Recorded Kd for FLPGQYMNI on HLA-A*02:03 was ≤ 0.1 nM

====

target.entity: HLA-B*53:01
procedure.text: IEDB peptide-MHC binding, purified MHC/competitive/radioactivity; filed as Kd, often an IC50 or EC50 that approximates it; bounds were set here for any values at or beyond the usual limits of such assays
run.conditions: source organism: Vaccinia virus WR
pKd: −log10 of the molar value.
Values of pKd greater than or equal to 6 map to met; values below map to not met.

// known answers, use as guide
> print(dat)
          seq  target.entity  assigned.label
1  LPSLIKTILA    HLA-B*53:01         not met
2  KPEVRIPVDL    HLA-B*53:01         not met
3  VPDIKLDAVL    HLA-B*53:01             met
4  DPTFQLLNMI    HLA-B*53:01         not met

Continue with the sequence presented below.
Req: Test whether the sequence DPDHYKDYAF records pKd of 6 or higher.
Resp: not met

====

target.entity: HLA-A*02:16
procedure.text: IEDB peptide-MHC binding, purified MHC/direct/fluorescence; filed as Kd, often an IC50 or EC50 that approximates it; bounds were set here for any values at or beyond the usual limits of such assays
run.conditions: source organism: Vibrio vulnificus CMCP6
measure.name: pKd
Notebook: values listed as pKd are -log10 of the concentration (mol/L).

Given item MSDWGHITV , the value recorded as its pKd is 7.54

====

target.entity: HLA-A*03:01
procedure.text: IEDB peptide-MHC binding, purified MHC/direct/fluorescence; filed as Kd, often an IC50 or EC50 that approximates it; bounds were set here for any values at or beyond the usual limits of such assays
run.conditions: source organism: Salmonella enterica subsp. enterica serovar Virchow
pKd: −log10 of the molar value.
measure.name: pKd

Given item CTWPEASRY , the value recorded as its pKd is ≤ 4.70

====

target.entity: HLA-A*11:01
procedure.text: IEDB peptide-MHC binding, purified MHC/competitive/radioactivity; filed as Kd, often an IC50 or EC50 that approximates it; bounds were set here for any values at or beyond the usual limits of such assays
run.conditions: source organism: Dengue virus 2 Peru/IQT2913/1996
measure.name: Kd (nM)
Kindly provide the numeric value in nM only, without the unit symbol.

Given item ATTFITPMLR , the value recorded as its Kd is 14

====

target.entity: HLA-A*31:01
procedure.text: IEDB peptide-MHC binding, purified MHC/direct/fluorescence; filed as Kd, often an IC50 or EC50 that approximates it; bounds were set here for any values at or beyond the usual limits of such assays
run.conditions: source organism: Coxiella burnetii
measure.name: Kd

Given item SYGNANVSF , the value recorded as its Kd is ≥ 20 µM

====

target.entity: HLA-A*69:01
procedure.text: IEDB peptide-MHC binding, purified MHC/direct/fluorescence; filed as Kd, often an IC50 or EC50 that approximates it; bounds were set here for any values at or beyond the usual limits of such assays
run.conditions: source organism: Vibrio cholerae
pKd: −log10 of the molar value.
pKd values for the sequences below.

> print(dat)
         seq  measure.name  assay.value
1  AYLLQHLDL           pKd       ≤ 4.70
2  FPRSAERAG           pKd       ≤ 4.70
3  EIFPNIKIY           pKd       ≤ 4.70

Turning now to a further record.
Given item FPLTQRDVL , the value recorded as its pKd is 6.14

====

target.entity: HLA-B*15:01
procedure.text: IEDB peptide-MHC binding, purified MHC/direct/fluorescence; filed as Kd, often an IC50 or EC50 that approximates it; bounds were set here for any values at or beyond the usual limits of such assays
run.conditions: source organism: Vibrio vulnificus
measure.name: Kd

Given item VNGVKGIQF , the value recorded as its Kd is ≥ 20 µM

Cited source for all entries: the Immune Epitope Database (IEDB)
